Where these numbers come from: PubChem BioAssay

Listed compounds paired with reported inhibition
assay: growth suppression of yeast trafficking mutant, preliminary HTS, modulators of trafficking downstream of Golgi apparatus project, 1536-format plate, OD 615 nm (AID 637); details: yeast transport mutant growth, absorbance 615 nm, 18 h; active compounds read high
Activity calls are given as the source filed them. Cut-off read from the data, not from the text of the source: active = inhibition above about 30%; inactive = the rest.
value-type: inhibition

> print(dat)
                                    compound           measured
 1  Cc1ccc(-c2noc(CN3C(C)CCCC3C)n2)cc1 (stereo unspecified)   2.33% (inactive)
 2    Cc1ccc(N2CCN(S(=O)(=O)N(C)C)CC2)c(C)c1   1.17% (inactive)
 3  COC(=O)c1[nH]c2c(c1C)C(=O)CC(c1cc(OC)ccc1OC)C2 (stereo unspecified)  -6.33% (inactive)
 4  CC1=C(C(=O)N2CCCCC2)C(c2cccs2)C2=C(CCCC2=O)N1 (stereo unspecified)  -5.67% (inactive)
 5  CC(C)C(C(=O)Nc1ccc2c(c1)OCCO2)N1C(=O)c2ccccc2C1=O (stereo unspecified)  -10.7% (inactive)
 6  CC1=C(C(=O)OC(C)C)C(c2ccccn2)n2ncnc2N1 (stereo unspecified)   0.83% (inactive)
 7  COc1ccc(NC(=O)C2CCCN(S(=O)(=O)c3cccc4cccnc34)C2)cc1OC (stereo unspecified)   1.67% (inactive)
 8  Cc1ccc2oc(=O)c3cnn(CC(=O)N4CCCCC4C)c3c2c1 (stereo unspecified)   2.62% (inactive)
 9  CCSc1nnc(N2C(=O)CC(c3ccsc3)C3=C2CC(C)(C)CC3=O)s1 (stereo unspecified)    9.5% (inactive)
10                CCCn1cc(SCC(N)=O)c2ccccc21   4.83% (inactive)
11  CC(c1ccco1)N(C(=O)c1ccc(S(=O)(=O)N2CCCCC2)cc1)c1ccccn1 (stereo unspecified)   1.27% (inactive)

====

assay: RAM signaling pathway blockade in yeast – S. cerevisiae, Pdr1DBD-CYC8 efflux-inhibited sensitized strain, primary screen (AID 1298);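 note: 0% = DMSO untreated cells without growth and 100% = 10 µM 1-NA-PP1 full growth; higher means more yeast growth rescued from 5-FOA killing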; conditions: S. cerevisiae cbk1-as DSE1-URA3 strain, 5-FOA growth OD615, 2 d; at 50 µM; active compounds read high
Quick reference: RAM network inhibition of the listed items.
value-type: RAM network inhibition (%)

> print(dat)
                                    compound              value.type  units.of.measure  measured
 1  O=C(O)C1C2C=CC3(CN(C/C=C/c4ccccc4)C(=O)C13)O2 (stereo not given)  RAM network inhibition                 %      3.71
 2          CCOc1ccc2nc(NC(=O)c3ccoc3C)sc2c1  RAM network inhibition                 %       2.4
 3  CCOCCCNC(=O)C(c1ccccc1)N(Cc1ccc2c(c1)OCO2)C(=O)CNC(C)=O (stereo not given)  RAM network inhibition                 %      1.52
 4                  Cc1cc(C(=O)Nc2cccnc2)on1  RAM network inhibition                 %      2.08
 5  O=C(c1cc2ccccc2oc1=O)N1CCN(c2ccc(N3CCOCC3)nn2)CC1  RAM network inhibition                 %     -0.58
 6  CCSc1nc(O)c(CC)c(=O)n1C(C)CC (stereo not given)  RAM network inhibition                 %      11.3
 7   COc1ccc(-c2nnc(SCC(=O)N3CCOCC3)o2)cc1OC  RAM network inhibition                 %      1.27
 8  CCSC1=C(C#N)C(c2ccc(F)cc2)CC(=O)N1 (stereo not given)  RAM network inhibition                 %      2.29
 9  CCOc1ccc(N(CC(=O)Nc2ccc(C)c(C)c2)S(=O)(=O)c2c(C)noc2C)cc1  RAM network inhibition                 %      6.75
10  Cc1nc2ccccc2c2oc(C(=O)N3CCN(C(=O)c4ccco4)CC3)cc12  RAM network inhibition                 %      2.11
11         COc1ccccc1N1CCN(C(=O)N2CCOCC2)CC1  RAM network inhibition                 %      0.62
12     Cc1cc(-c2nc3ncccc3o2)ccc1NC(=O)CC(C)C  RAM network inhibition                 %      0.92
13  Cc1c(C(=O)OCCOC(C)C)[nH]c2c1C(=O)CC(c1ccco1)C2 (stereo not given)  RAM network inhibition                 %     -1.95
14  CCOc1ccc(Cc2nnc(SCC(=O)c3ccc(OC)cc3)o2)cc1  RAM network inhibition                 %      11.3
15  CN1CCc2c(sc3c2C(=O)NC(c2ccc(-c4cccc(Cl)c4)o2)N3)C1 (stereo not given)  RAM network inhibition                 %       2.2
16       CCOC(=O)Cc1nnc(NC(=O)c2ccccc2OCC)s1  RAM network inhibition                 %       3.5
17  Cc1c(C(=O)NC2CC2)oc2ccc(S(=O)(=O)N3CCCCCC3)cc12  RAM network inhibition                 %      4.34
18      CCCn1nc(NC(=O)CC(C)C)c2cc3ccccc3nc21  RAM network inhibition                 %      3.01
19  Cc1ccccc1NC(=O)C1CCCN(S(=O)(=O)c2cccc3cccnc23)C1 (stereo not given)  RAM network inhibition                 %      1.93
20  Cc1ccc(N2C(=O)c3oc4ccccc4c(=O)c3C2c2cccc(O)c2)nc1 (stereo not given)  RAM network inhibition                 %      7.27
21      c1ccc(-n2ncc3c(NC4CCCCCC4)ncnc32)cc1  RAM network inhibition                 %      6.78
22  CCCCN1C(=O)c2ccc(C(=O)Nc3c(N)n(CCCC)c(=O)n(C)c3=O)cc2C1=O  RAM network inhibition                 %      7.06
23  CC(C)(C)n1nc2c(c1NC(=O)c1ccc(Br)cc1)CS(=O)C2 (stereo not given)  RAM network inhibition                 %     -0.53
24  CC1CCN(C(C(=O)Nc2ccc3c(c2)OCO3)c2ccccc2)CC1 (stereo not given)  RAM network inhibition                 %      4.49
25  CSCCC(NC(=O)c1c(C)oc2c1CCCC2)C(=O)O (stereo not given)  RAM network inhibition                 %      0.21
26        O=C(CCn1[nH]c(=O)c2ccccc2c1=O)NCCO  RAM network inhibition                 %       0.2
27   O=C(Cn1ncc2c1-c1ccccc1OC2)N1CCc2ccccc21  RAM network inhibition                 %      6.41
28  NC(=O)C1(N2CCCCC2)CCN(C(=O)CCCn2c(=O)[nH]c3ccsc3c2=O)CC1  RAM network inhibition                 %      0.48
29        CCCc1cc(C(=O)Nc2ccc(C(C)=O)cc2)no1  RAM network inhibition                 %      6.52
30  O=C(Nc1ccncc1)C1CCCN(S(=O)(=O)c2cccc3cccnc23)C1 (stereo not given)  RAM network inhibition                 %      2.56
31               Cc1ccc(N=Cc2ccc[nH]2)c(O)c1  RAM network inhibition                 %      0.26
32  CCN(CC)S(=O)(=O)c1cc(C(=O)Oc2ccccc2OC)ccc1OC  RAM network inhibition                 %      3.93
33             Cc1cc(C)nc(SCC(=O)N2CCCCC2)n1  RAM network inhibition                 %      0.74
34  COc1ccc(N(CC(=O)Nc2ccc3c(c2)OCO3)S(=O)(=O)c2c(C)nn(C)c2C)cc1  RAM network inhibition                 %      3.88
35  CCc1nn(CC(=O)NCCCN2CCc3ccccc3C2)c(=O)c2cc3sccc3n12  RAM network inhibition                 %      1.52
36  COc1ccc(-n2c(Cc3cccn3C)nnc2SCC(=O)Nc2ccccc2)cc1  RAM network inhibition                 %      2.14
37  CCOc1ccc(N(CC(=O)Nc2ccc(F)c(F)c2)S(=O)(=O)c2c(C)noc2C)cc1  RAM network inhibition                 %      4.77
38  CCOC(=O)N1CCC(N2C(=O)c3ccc(C(=O)Nc4ccc(F)cc4F)cc3C2=O)CC1  RAM network inhibition                 %      4.78
39  COc1cccc(C2=NOC(C(=O)Nc3cc(C)nn3-c3ccccc3)C2)c1OC (stereo not given)  RAM network inhibition                 %     -0.06
40  CC(C)Sc1nnc(Cn2c(=O)sc3ccccc32)n1-c1ccccc1  RAM network inhibition                 %      5.84
41      Cc1ccccc1-n1nc(C(=O)O)c(C)c(C#N)c1=O  RAM network inhibition                 %      3.52
42  CCC1CCCCN1Cc1ccc(OC)c(OC)c1 (stereo not given)  RAM network inhibition                 %     -1.61
43  COc1ccc(-n2c(Cc3cccn3C)nnc2SCC(=O)Nc2ccccc2C)cc1  RAM network inhibition                 %      7.38
44  CC(Sc1nc(N2CCOCC2)nc(N2CCOCC2)n1)C(=O)Nc1ccccc1 (stereo not given)  RAM network inhibition                 %       5.6
45  CCOC(=O)c1ccc(N=c2sc(C(=O)OC)cc(=O)n2Cc2ccco2)cc1  RAM network inhibition                 %       7.3
